# credit: patent US20240369551A1

Catalogue of limit of detection (LOD) values
System: SARS-CoV-2 IgG antibodies
PROCEDURE SUMMARY: Immunoassay with epitope-tagged AuNPs (aggregation, relative change in absorbance at 534 nm)
Type: binding, rabbit
EXPERIMENTAL PARAMETERS: single epitope-functionalized AuNPs (streptavidin-biotin), respective SARS-CoV-2 IgG
Ends that are not written are not given here.

SUBSTANCE	MEASURED ON	limit of detection (LOD) / nM
S14P5-AuNPs: Gold nanoparticles functionalized with S14P5; streptavidin-biotin in Example 10, thiol-gold with or without CALNN spacer in Examples 1 and 6 (TESNKKFLPFQQFGRDIA; also: conjugated to gold nanoparticles via streptavidin-biotin or thiol-gold, with or without CALNN spacer)	SARS-CoV-2 IgG antibodies	4.1
NNAAIVLQLPQGTTLPKG [N4P5]	SARS-CoV-2 IgG antibodies	25.8
TESNKKFLPFQQFGRDIA [S14P5]	SARS-CoV-2 IgG antibodies	4.1
S21P2-AuNPs: Streptavidin-coated gold nanoparticles functionalized with biotinylated S21P2 epitope (PSKPSKRSFIEDLLFNKV; also: biotinylated, bound to streptavidin-coated gold nanoparticles)	SARS-CoV-2 IgG antibodies	5.1
GIAVEQDKNTQEVFAQVK [S20P2]	SARS-CoV-2 IgG antibodies	15.4
PSKPSKRSFIEDLLFNKV [S21P2]	SARS-CoV-2 IgG antibodies	5.1
